target: Cytochrome P450 3A4 (Homo sapiens, UniProt P08684);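 further: CYP3A4 tested as one member of a cytochrome P450 panel screen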
Sequence (P08684 whole entry): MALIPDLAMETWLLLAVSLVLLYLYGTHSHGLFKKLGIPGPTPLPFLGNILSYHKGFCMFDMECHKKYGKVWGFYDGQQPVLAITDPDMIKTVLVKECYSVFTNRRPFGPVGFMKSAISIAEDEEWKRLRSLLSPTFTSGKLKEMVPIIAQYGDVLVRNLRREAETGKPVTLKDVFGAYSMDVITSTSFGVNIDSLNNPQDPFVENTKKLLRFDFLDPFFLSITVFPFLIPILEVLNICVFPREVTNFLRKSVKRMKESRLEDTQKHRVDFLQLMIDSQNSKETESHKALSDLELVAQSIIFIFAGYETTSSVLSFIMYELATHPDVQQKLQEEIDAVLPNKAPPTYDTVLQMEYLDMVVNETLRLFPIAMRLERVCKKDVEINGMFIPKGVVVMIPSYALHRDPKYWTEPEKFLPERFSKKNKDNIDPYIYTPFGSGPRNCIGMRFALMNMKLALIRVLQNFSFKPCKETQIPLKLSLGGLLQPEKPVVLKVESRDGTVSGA
MEASURED PARAMETER: AC50

Solved entries (count: 8):
# COMPOUND, MEASURED VALUE
rows = [
    ("Cc1cc(-c2cccs2)nc(-n2cccc2)n1", "31.6 µM (inconclusive)"),
    ("Cc1ccc(S(=O)(=O)N(C)CC(=O)ONC(=N)c2ccccn2)cc1", "22.4 µM (inconclusive)"),
    ("Cc1cc2ccccc2nc1SCC(=O)Nc1nc(-c2ccccc2)cs1", "0.178 µM (inconclusive)"),
    ("CNc1nc(-c2ccccc2CN(C)C)nc2ccccc12", "25.1 µM (inconclusive)"),
    ("O=C1C(=O)N(Cc2ccc(Cl)c(Cl)c2)c2ccccc21", "7.94 µM (inconclusive)"),
    ("COc1ccc(C2(C(=O)N3CCOCC3)CCCC2)cc1", "12.6 µM (inconclusive)"),
    ("Cc1cc(Nc2ccc(Cl)cc2)nc(N)n1", "5.62 µM (inconclusive)"),
    ("Cc1ccccc1NC(=O)c1ccc(N/N=C/c2ccccc2O)c([N+](=O)[O-])c1", "4.47 µM (inconclusive)"),
]

Dear colleague, could you send me AC50 for each of the items below? Thanks.
1. CC(=O)N(NC(=O)c1ccccc1Cl)C1CC(=O)N(c2ccc(C)cc2)C1=O (stereo not given)
2. CO[C@H]1COC(=O)[C@@H](Cc2ccccc2)NC(=O)[C@@H](C)COC(=O)C/C=C\[C@@H]1C
3. CC1=NOC(=O)/C1=C\c1ccc(-c2ccc(Cl)cc2Cl)o1
4. O=c1cc(-c2ccc(O)c(O)c2)oc2cc(O)cc(O)c12

1. 20 µM (inconclusive)
2. 6.31 µM (inconclusive)
3. 17.8 µM (inconclusive)
4. 5.01 µM (inconclusive)

Dear colleague, could you send me AC50 for each of the items below? Thanks.
1. N#CCCn1c(=O)c(-c2ccccc2)nc2cnc(OCc3ccccc3)nc21
2. O=C(Nc1cc(Sc2ccccn2)cc([N+](=O)[O-])c1)c1ccc([N+](=O)[O-])cc1
3. Cc1nc2cncnc2n(-c2ccccc2)c1=O

7.94 µM (inconclusive)
7.94 µM (inconclusive)
12.6 µM (inconclusive)

----------
biological target: Sentrin-specific protease 7 (Homo sapiens); assay type: functional;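 further: Luminescence-based dose-response confirmation of ultra-high-throughput screening hits, measuring inhibition of SENP7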
Sequence (Q9BQF6 whole entry): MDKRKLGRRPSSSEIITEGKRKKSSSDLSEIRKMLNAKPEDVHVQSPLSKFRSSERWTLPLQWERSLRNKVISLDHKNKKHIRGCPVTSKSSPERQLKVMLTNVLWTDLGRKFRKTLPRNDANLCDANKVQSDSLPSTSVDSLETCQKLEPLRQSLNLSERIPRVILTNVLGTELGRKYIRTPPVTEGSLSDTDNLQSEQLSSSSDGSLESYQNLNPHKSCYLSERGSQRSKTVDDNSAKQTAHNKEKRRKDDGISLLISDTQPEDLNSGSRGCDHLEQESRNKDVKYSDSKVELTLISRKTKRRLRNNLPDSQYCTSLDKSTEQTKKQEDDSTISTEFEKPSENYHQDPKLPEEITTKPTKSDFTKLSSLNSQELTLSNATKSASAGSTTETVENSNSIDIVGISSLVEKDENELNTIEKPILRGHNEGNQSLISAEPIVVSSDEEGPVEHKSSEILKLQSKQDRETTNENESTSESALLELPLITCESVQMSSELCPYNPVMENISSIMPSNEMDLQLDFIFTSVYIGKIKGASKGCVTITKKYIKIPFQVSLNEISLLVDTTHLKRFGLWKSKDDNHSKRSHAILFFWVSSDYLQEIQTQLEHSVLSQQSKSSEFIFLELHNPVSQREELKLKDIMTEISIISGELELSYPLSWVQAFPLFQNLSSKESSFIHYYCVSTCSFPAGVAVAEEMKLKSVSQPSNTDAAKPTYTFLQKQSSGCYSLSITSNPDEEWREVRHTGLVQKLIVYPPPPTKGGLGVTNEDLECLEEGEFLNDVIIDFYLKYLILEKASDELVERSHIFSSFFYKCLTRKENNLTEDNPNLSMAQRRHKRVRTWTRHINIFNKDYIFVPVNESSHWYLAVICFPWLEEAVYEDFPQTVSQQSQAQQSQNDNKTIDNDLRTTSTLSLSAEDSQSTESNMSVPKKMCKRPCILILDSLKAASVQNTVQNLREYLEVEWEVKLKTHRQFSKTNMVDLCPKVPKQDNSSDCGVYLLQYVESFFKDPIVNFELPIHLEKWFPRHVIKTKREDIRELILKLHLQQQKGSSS
Calls of active or inactive are those of the source.
I'd be grateful if you could share measured IC50 for these entries.

Dear colleague, could you send me IC50 for each of the items below? Thanks.
1. O=C(COC(=O)c1ccc([N+](=O)[O-])s1)Nc1ncc(C(F)(F)F)cc1Cl
2. Brc1ccc(-c2cnc(-c3cccs3)o2)cc1

1. 10.5 µM (active)
2. 5.42 µM (active)

Bench note: what IC50 did O=C(NC1(O)C(=O)c2ccccc2C1=O)c1c(Cl)cccc1Cl show?
3.76 µM (active)

----------
biological target: Cytochrome P450 2C19 (Homo sapiens, UniProt P33261); experiment: Cytochrome panel assay with activity outcomes. Panel member name: p450-cyp2c19 Compounds with AC50 equal or less than 10 uM are considered active; assay type: functional; details: read-out: AC50
Sequence (P33261 whole entry): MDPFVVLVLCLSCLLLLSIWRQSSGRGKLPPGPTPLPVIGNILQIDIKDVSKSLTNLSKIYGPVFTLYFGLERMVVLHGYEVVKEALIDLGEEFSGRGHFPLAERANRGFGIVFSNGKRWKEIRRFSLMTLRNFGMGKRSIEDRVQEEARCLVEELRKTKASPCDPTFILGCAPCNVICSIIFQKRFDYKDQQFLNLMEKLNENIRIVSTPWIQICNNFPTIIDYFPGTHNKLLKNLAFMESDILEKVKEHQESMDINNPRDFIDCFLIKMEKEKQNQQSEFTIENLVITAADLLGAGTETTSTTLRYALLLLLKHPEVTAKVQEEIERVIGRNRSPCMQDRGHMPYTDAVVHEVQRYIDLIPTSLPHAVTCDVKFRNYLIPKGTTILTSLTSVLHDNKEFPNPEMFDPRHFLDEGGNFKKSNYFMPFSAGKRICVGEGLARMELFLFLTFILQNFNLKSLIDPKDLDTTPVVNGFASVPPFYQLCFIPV
MEASURED PARAMETER: AC50

Solved entries (count: 2):
# SMILES STRING, AC50
measured = [
    ("FC(F)(F)c1nnc(-c2ccccc2)nc1Sc1ccccc1", "0.00355 µM (inconclusive)"),
    ("N#CCCn1c(=O)c(-c2ccccc2)nc2cnc(OCc3ccccc3)nc21", "39.8 µM (inconclusive)"),
]

Let us examine a further case.
Bench note: what AC50 did COC(=O)[C@@]1(Cc2ccc(OC)cc2)[C@H]2c3cc(C(=O)N4CCCC4)n(C[C@H](O)CO)c3C[C@H]2CN1C(=O)c1ccccc1 show?
39.8 µM (inconclusive)
